These data points were gathered from the supplement of paper PMC10567573.

B1: VENTX (parent)
chain: VFQHHQYLSPLERKRLAREMQLSE

- Variants of: B1
- assay summary: protein stability index of a GFP-peptide fusion (GPS, HEK-293T) (PSI 1-6); higher = more stable;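 note: lentivirally expressed fusions sorted by FACS into six bins by GFP to DsRed ratio, PSI derived from sequencing read proportions per bin multiplied by bin number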
- experimental parameters: c terminus: a fixed tail appended
Kindly state protein stability index for each of the entries shown.

Below, each entry is followed by its recorded protein stability index result.
L11M 2.65
S9F 1.99
L8T 2.4
M20C 3.43
Y7G 2.34

Could I get protein stability index for every one of these entries?
1. R15N
2. P10S

1: 2.85; 2: 2.89

For each of the items listed, what is its protein stability index?
1. Q3L
2. E12C
3. Q6V

[1.29, 1.98, 2.42]

Provide each entry's protein stability index from the list below.
1. L22M
2. K14N
3. F2E
4. R15V
5. L16V
6. H4F
7. S23H

2.42
2.83
4.48
1.92
2.75
1.69
2.37

For every item in the list below, what is its measured protein stability index?
1. V1R
2. K14R
3. H4S
4. E12N
5. L22T

1: 2.42; 2: 2.67; 3: 2.91; 4: 2.56; 5: 3.12
